Hey, just so you know, these numbers are from patent US20140296147A1.

Experiment: Plasma pharmacokinetics of MDCO-2010 (LC/MS/MS, non-compartmental analysis) during CABG surgery
Assay type: in vivo, human
Conditions: human, plasma, intravenous, plasma, after end of infusion, CABG patients; read-out: terminal half-life (converted)
Experimental: Nominal blood sampling times for PK analysis were pre-dose (T1, pre-heparin) and at 10 min (pre-CBP), 15 min, 30 min, 60 min (or just before cessation of CPB), at the end of infusion (sternal closure), 15 min, 30 min, and at 4 hours post-end of infusion. Actual times were calculated for each patient and used for PK analysis. MDCO-2010 was measured in plasma by liquid chromatography with tandem mass spectrometry (LC/MS/MS). […]
property.measured: half-life (min)
All answers are understood in min, so give the number only.

Query: Endpoint output: half-life of "N=C(N)c1ccc(CNC(=O)[C@H](Cc2cccc(CN)c2)NC(=O)[C@@H](CCCc2ccccc2)NS(=O)(=O)Cc2cccc(C(=O)O)c2)cc1" . Value?
Reply: 60

====

test: Plasma pharmacokinetics of MDCO-2010 (LC/MS/MS, non-compartmental analysis) during CABG surgery; format: in vivo, human; conditions: human, plasma, intravenous, range over cohorts; read-out: elimination half-life, range
property.measured: half-life

Query: For the compound "N=C(N)c1ccc(CNC(=O)[C@H](Cc2cccc(CN)c2)NC(=O)[C@@H](CCCc2ccccc2)NS(=O)(=O)Cc2cccc(C(=O)O)c2)cc1" , what half-life is on record?
Reply: 1.02 to 1.7 h

====

Experiment: Plasma pharmacokinetics of MDCO-2010 (LC/MS/MS, non-compartmental analysis) during CABG surgery
Assay type: in vivo, human
Details: human, plasma, iv, 1.88 mg, Cohort 1, mean dose 1.88 mg, IV infusion during CABG surgery; mean; read-out: t1/2
Experimental: Nominal blood sampling times for PK analysis were pre-dose (T1, pre-heparin) and at 10 min (pre-CBP), 15 min, 30 min, 60 min (or just before cessation of CPB), at the end of infusion (sternal closure), 15 min, 30 min, and at 4 hours post-end of infusion. Actual times were calculated for each patient and used for PK analysis. MDCO-2010 was measured in plasma by liquid chromatography with tandem mass spectrometry (LC/MS/MS). […]
property.measured: half-life (h)
# unit: h | format: bare number

Query: I am curious: what half-life value has been reported for N=C(N)c1ccc(CNC(=O)[C@H](Cc2cccc(CN)c2)NC(=O)[C@@H](CCCc2ccccc2)NS(=O)(=O)Cc2cccc(C(=O)O)c2)cc1 [MDCO-2010] ?
Reply: 1.02

====

assay: Plasma pharmacokinetics of MDCO-2010 (LC/MS/MS, non-compartmental analysis) during CABG surgery; type: in vivo, human; conditions: human, plasma; Cohort 5, mean dose 38.01 mg, IV infusion during CABG surgery; mean
property.measured: Cmax
Enter the number, and then the unit.

Query: # get_value(readout='Cmax', item= N=C(N)c1ccc(CNC(=O)[C@H](Cc2cccc(CN)c2)NC(=O)[C@@H](CCCc2ccccc2)NS(=O)(=O)Cc2cccc(C(=O)O)c2)cc1 [MDCO-2010] )
Reply: 1150 ng/mL

====

test: Plasma pharmacokinetics of MDCO-2010 (LC/MS/MS, non-compartmental analysis) during CABG surgery; type: in vivo, human; conditions: human, plasma; Cohort 2, mean dose 4.99 mg, IV infusion during CABG surgery; mean
property.measured: Cmax (ng/mL)
Give just the numeric value; ng/mL need not be written.

Query: Could you share which Cmax value was measured for N=C(N)c1ccc(CNC(=O)[C@H](Cc2cccc(CN)c2)NC(=O)[C@@H](CCCc2ccccc2)NS(=O)(=O)Cc2cccc(C(=O)O)c2)cc1 [MDCO-2010] ?
Reply: 114

====

assay: Plasma pharmacokinetics of MDCO-2010 (LC/MS/MS, non-compartmental analysis) during CABG surgery; assay type: in vivo, human; conditions: human, plasma, iv, 12.33 mg, Cohort 3, mean dose 12.33 mg, IV infusion during CABG surgery; mean; read-out: t1/2
property.measured: half-life (h)
Your answer is read as h, so omit the unit and give the number.

Query: # get_value(readout='half-life', item= N=C(N)c1ccc(CNC(=O)[C@H](Cc2cccc(CN)c2)NC(=O)[C@@H](CCCc2ccccc2)NS(=O)(=O)Cc2cccc(C(=O)O)c2)cc1 [MDCO-2010] )
Reply: 1.26

====

experiment: Plasma pharmacokinetics of MDCO-2010 (LC/MS/MS, non-compartmental analysis) during CABG surgery; type: in vivo, human; settings: human, plasma; Cohort 5, mean dose 38.01 mg, IV infusion during CABG surgery; mean; read-out: Vss
property.measured: Vd (L)
The reply should be a number in L, with the unit left off.

Query: Any idea what its Vd is? The compound is "N=C(N)c1ccc(CNC(=O)[C@H](Cc2cccc(CN)c2)NC(=O)[C@@H](CCCc2ccccc2)NS(=O)(=O)Cc2cccc(C(=O)O)c2)cc1"
Reply: 15.1

====

assay: Plasma pharmacokinetics of MDCO-2010 (LC/MS/MS, non-compartmental analysis) during CABG surgery; assay type: in vivo, human; conditions: human, plasma; Cohort 3, mean dose 12.33 mg, IV infusion during CABG surgery; mean
property.measured: Cmax (ng/mL)
Just the number in ng/mL, nothing appended.

Query: Would you kindly share the measured Cmax for "N=C(N)c1ccc(CNC(=O)[C@H](Cc2cccc(CN)c2)NC(=O)[C@@H](CCCc2ccccc2)NS(=O)(=O)Cc2cccc(C(=O)O)c2)cc1" ?
Reply: 288

====

experiment: Plasma pharmacokinetics of MDCO-2010 (LC/MS/MS, non-compartmental analysis) during CABG surgery; format: in vivo, human; details: human, plasma, iv, 19.57 mg, Cohort 4, mean dose 19.57 mg, IV infusion during CABG surgery; mean; read-out: t1/2
property.measured: half-life
Dear colleague, please send the value followed by its unit.

Query: State the recorded half-life for this entry: N=C(N)c1ccc(CNC(=O)[C@H](Cc2cccc(CN)c2)NC(=O)[C@@H](CCCc2ccccc2)NS(=O)(=O)Cc2cccc(C(=O)O)c2)cc1 [MDCO-2010]
Reply: 1.74 h

====

assay: Plasma pharmacokinetics of MDCO-2010 (LC/MS/MS, non-compartmental analysis) during CABG surgery; type: in vivo, human; conditions: human, plasma; Cohort 1, mean dose 1.88 mg, IV infusion during CABG surgery; mean; read-out: Vss
property.measured: Vd

Query: Recorded Vd for N=C(N)c1ccc(CNC(=O)[C@H](Cc2cccc(CN)c2)NC(=O)[C@@H](CCCc2ccccc2)NS(=O)(=O)Cc2cccc(C(=O)O)c2)cc1 [MDCO-2010] , please?
Reply: 12.7 L

====

experiment: Plasma pharmacokinetics of MDCO-2010 (LC/MS/MS, non-compartmental analysis) during CABG surgery; type: in vivo, human; details: human, plasma, intravenous; 38.01 mg total dose; read-out: Total body clearance
property.measured: clearance
For clarity, give the value followed by its unit.

Query: Requested field: clearance. Item: "N=C(N)c1ccc(CNC(=O)[C@H](Cc2cccc(CN)c2)NC(=O)[C@@H](CCCc2ccccc2)NS(=O)(=O)Cc2cccc(C(=O)O)c2)cc1"
Reply: 153 mL/min

====

Assay: Plasma pharmacokinetics of MDCO-2010 (LC/MS/MS, non-compartmental analysis) during CABG surgery
Assay type: in vivo, human
Settings: human, plasma; Cohort 4, mean dose 19.57 mg, IV infusion during CABG surgery; mean; read-out: Cl
Description: Nominal blood sampling times for PK analysis were pre-dose (T1, pre-heparin) and at 10 min (pre-CBP), 15 min, 30 min, 60 min (or just before cessation of CPB), at the end of infusion (sternal closure), 15 min, 30 min, and at 4 hours post-end of infusion. Actual times were calculated for each patient and used for PK analysis. MDCO-2010 was measured in plasma by liquid chromatography with tandem mass spectrometry (LC/MS/MS). […]
property.measured: clearance
Quote the value and follow it with the unit of measurement.

Query: Consider the molecule N=C(N)c1ccc(CNC(=O)[C@H](Cc2cccc(CN)c2)NC(=O)[C@@H](CCCc2ccccc2)NS(=O)(=O)Cc2cccc(C(=O)O)c2)cc1 [MDCO-2010] and give its measured clearance.
Reply: 179 mL/min

====

Assay: Plasma pharmacokinetics of MDCO-2010 (LC/MS/MS, non-compartmental analysis) during CABG surgery
Type: in vivo, human
Conditions: human, plasma; Cohort 3, mean dose 12.33 mg, IV infusion during CABG surgery; mean; read-out: Vss
Description: Nominal blood sampling times for PK analysis were pre-dose (T1, pre-heparin) and at 10 min (pre-CBP), 15 min, 30 min, 60 min (or just before cessation of CPB), at the end of infusion (sternal closure), 15 min, 30 min, and at 4 hours post-end of infusion. Actual times were calculated for each patient and used for PK analysis. MDCO-2010 was measured in plasma by liquid chromatography with tandem mass spectrometry (LC/MS/MS). […]
property.measured: Vd (L)
Please state the figure in L; there is no need to write the unit.

Query: Would you kindly share the measured Vd for "N=C(N)c1ccc(CNC(=O)[C@H](Cc2cccc(CN)c2)NC(=O)[C@@H](CCCc2ccccc2)NS(=O)(=O)Cc2cccc(C(=O)O)c2)cc1" ?
Reply: 12.3
